# test method notes: NCI Yeast Anticancer Drug Screen. Data for the mec2-1 strain (AID 157)
# assay context: S. cerevisiae mec2-1 strain, at 50.0 µM, active compounds read high
About 79,000 compounds went through this panel and 15% of them were active in at least one assay; those are over-represented in the sample as a whole.
Recorded growth inhibition for the following molecules
Numbers only here, please. The scale is %.

See these solved cases before continuing.
CN[C@H]1CCc2cc(OC)c(OC)c(OC)c2-c2ccc(O)c(=O)cc21	-9.45
C[OH2+].[Cl][Cu+].[Cl][Cu+].[NH-]CCC([OH2+])CC[NH-]	-12.2
OCC1OC(n2cnc3c(NCc4ccccc4)ncnc32)C(O)C1O (stereo unspecified)	-2.5
CC(C)CC1=C(N(C)C)C(=O)C=C(N(C)C)C1=O	-9.4
CCOc1c(N=Nc2ccc(OC)cc2)c(C)nn1C(N)=S	-1.5
COc1ccc2c(c1)C(=O)[C@]1(C)C3(C)OC(=O)C(c4ccccc43)[C@]21C (stereo partly specified)	-8.6
Nc1ccc(N=Nc2ccncc2)c2ccccc12	22.5
COc1cccc(/C(CC(O)(C(F)(F)F)C(F)(F)F)=N\N(C)C)c1	-9.9
CCCCCCCCCCCCCCCCOc1ccc(C(=O)O)cc1	0.75
CNC(C#N)c1ccc(OC)cc1 (stereo unspecified)	17.9

Entry CC(C)(C)c1ccc(OCC(=O)O)cc1 has what growth inhibition?
-12

Entry CC1(C)CC(C)(C)CC(O)(C2(O)CC(C)(C)CC(C)(C)C2)C1 has what growth inhibition?
0.35

Entry COc1ccc(-c2onc3ccc(Cl)cc23)cc1 has what growth inhibition?
4.1

Entry Cc1ccc(S(=O)(=O)Oc2cc(-c3ccccc3)nc3ccccc23)cc1 has what growth inhibition?
-7.25

Entry FC(F)(F)C1(F)C(F)(F)C(F)(F)C(F)(F)C(F)(F)C1(F)F has what growth inhibition?
-39.1

Entry Nc1cc2c(cc1Br)-c1c(C(=O)O)cccc1C2=O has what growth inhibition?
9.3

Entry CCOC(=O)Nc1nc2ccn(C)c2s1 has what growth inhibition?
-6.9

###

# test method notes: NCI Yeast Anticancer Drug Screen. Data for the sgs1 mgt1 strain (AID 161);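 also: 0% = growth of cultures given vehicle only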
# assay context: S. cerevisiae sgs1 mgt1 strain, at 50.0 µM
This is part of a sample that, as a whole, favours compounds with a hit. Of some 79,000 tested, about 15% had one in any assay. Active and inactive are the calls of the source. No stated cut-off is given here; in the data, active means growth inhibition above about 70%; inactive means the rest.
Parameter call: string, one of true (active), false (inactive)

N#Cc1c(N2CCCC2)ncn(Cc2ccccc2)c1=S	false
CC1(CO)COC(=O)C(C)(C2(C)NC(C)(CO)COC2=O)N1 (configuration not stated)	false
N#CC1=CCc2ccccc2N1C(=O)Oc1ccccc1	false
CC1Oc2c(c(=O)oc3ccccc23)[C@@]1(C)CC1C[C@H](C)C(=O)O1 (some centres not stated)	false
CC(=O)Cc1ccc2[nH]c(C)cc(=O)c2c1	false

Recorded call for COc1ccc(NC(=O)C(Br)C(Br)c2ccccc2)c(Cl)c1 (configuration not stated) ?
true

Recorded call for CCCSc1nc2c(c(=O)n(C)c(=O)n2C)n1C ?
false

Recorded call for COCCCNC(=O)C1C(=O)C(=O)N(CCCOC)C1=O (configuration not stated) ?
false

Recorded call for Cc1ccc(S(=O)(=O)Nc2cccc3c(=O)[nH]cnc23)cc1 ?
false

Recorded call for CCCCCCCCCCCO/N=C\c1c2c(O)c3c(O)c(C)c4c(c3c1O)C(=O)C(C)(O/C=C\C(OC)C(C)C(OC(C)=O)C(C)C(O)C(C)C(O)C(C)/C=C\C=C(\C)C(=O)N2)O4 (configuration not stated) ?
false

Recorded call for COc1ccc(/C=N\N2CN(C(CC(N)=O)C(=O)O)C(O)(CCl)N=C2N)cc1OC (configuration not stated) ?
false

Recorded call for CCN(CC)CCNc1ccc(C)c2sc3ccc(N)cc3c(=O)c12 ?
false

Recorded call for Cc1ccc(SCC(CF)OC(C)n2cnc3c(=O)[nH]c(N)nc32)cc1 (configuration not stated) ?
false

Recorded call for Clc1ccc2ccccc2n1 ?
false

Recorded call for Cc1ccc(C2(C(=O)O)CC2)cc1 ?
false

Recorded call for O=C(/C=C\c1ccccc1)OC(c1ccccc1)c1ccc(Br)cc1 (configuration not stated) ?
false

Recorded call for O=C(O)c1ccccc1-c1ccccc1C(=O)Nc1ccc2c(c1)[nH]c(=O)c1ccccc12 ?
false

###

# test method notes: NCI Yeast Anticancer Drug Screen. Data for the mlh1 rad18 strain (AID 175)
# assay context: S. cerevisiae mlh1 rad18 strain growth inhibition; at 50.0 µM; active compounds read high
About 79,000 compounds went through this panel and 15% of them were active in at least one assay; those are over-represented in the sample as a whole.
outcome measure: growth inhibition (%)
Numbers only here, please. The scale is %.

CN(c1ccccc1)C1C(=O)N(c2ccccc2)C1/C=C/c1ccccc1 (stereo not drawn)	39.1

Entry CSC12CC3C(=O)C=C[C@@H](O)[C@@H]3N1C(=O)C1(SC)CC3C(=O)C=C[C@@H](O)[C@@H]3N1C2=O (stereo partly drawn) has what growth inhibition?
65.2

Entry CC1C=CC(C)S(=O)N1C(=O)Cc1ccccc1 (stereo not drawn) has what growth inhibition?
-19.6

Entry NC(=O)c1[nH]nc(C2OC(CO)C(O)C2O)c1O (stereo not drawn) has what growth inhibition?
8.75

Entry NC(=S)N/N=C1\C(=O)NC(=O)C1c1ccccc1 (stereo not drawn) has what growth inhibition?
6.95

Entry COC1OC(COC(=O)c2ccccc2)C(OC(=O)c2ccccc2)C1NC(C)=O (stereo not drawn) has what growth inhibition?
28.4

Entry CCOC(=O)NC(=O)c1cn(C2OC(COC(=O)CCCCCCCCC(=O)OCC3OC(n4cc(C(=O)NC(=O)OCC)c(=O)[nH]c4=O)C4OC(C)(C)OC34)C3OC(C)(C)OC32)c(=O)[nH]c1=O (stereo not drawn) has what growth inhibition?
-24.9

Entry CC(C)CCCC(C)C1CCC2C3CC=C4CC(OC(=O)C56C=CC(=O)C5C5C=CC6CC5)CCC4(C)C3CCC12C (stereo not drawn) has what growth inhibition?
20.9

Entry Cc1ccc(-c2cc(=O)c3cc(C)c(C)c(C(=O)O)c3o2)cc1 has what growth inhibition?
10.8

Entry O=C(C#CP(=O)(O)c1ccccc1)c1ccccc1 has what growth inhibition?
3.05

Entry CC1(C)CC[C@]2(C(=O)O)CC[C@]3(C)C(=CC[C@@H]4[C@@]5(C)CC[C@@H]6OC(C)(C)OC[C@@]6(C)[C@@H]5CC[C@]43C)[C@H]2C1 has what growth inhibition?
-62.6

Entry C1CCCCC/C2=C(\CCCC1)CSCCCS2 has what growth inhibition?
-36.5

###

# test method notes: NCI Yeast Anticancer Drug Screen. Data for the cln2 rad14 strain (AID 165);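 also: 0% = growth equal to vehicle treated cultures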
# assay context: S. cerevisiae cln2 rad14 strain, at 50.0 µM, active compounds read high
This is part of a sample that, as a whole, favours compounds with a hit. Of some 79,000 tested, about 15% had one in any assay.
outcome measure: growth inhibition (%)
Numbers only here, please. The scale is %.

CC1(C)C2CCC(=O)C1C(OCc1ccccc1)C2 (configuration not stated)	-0.85
CCOC(=O)C1CCCCC1C(=O)OCC (configuration not stated)	-3.55
CCOC(=O)/C(=C/c1ccc(N(C)C)cc1)N(CC)CC	13.4
O=[N+]([O-])c1ccc(/C=N\N=C\c2ccco2)cc1	-50.1
OCC1C2C=CC1CC2 (configuration not stated)	-0.85
COc1ccc(NC(=O)CC(=O)N/N=C(/C)c2cc3cc(N=Nc4ccccc4Cl)ccc3oc2=O)cc1	34

Entry CC(C)(C)c1ccc2c(c1)C(O)(C#Cc1ccccc1)c1ccccc1C2(O)C#Cc1ccccc1 (configuration not stated) has what growth inhibition?
9.35

Entry COn1nnc2c([N+](=O)[O-])cccc21 has what growth inhibition?
-22.9

Entry CN(C)[C@@H]1C(=O)C(C(=O)NCN2CCN(C(=N)N=C(N)N)CC2)=C(O)[C@@]2(O)C(=O)C3=C(O)c4c(O)cccc4[C@@](C)(O)[C@H]3C[C@@H]12 has what growth inhibition?
14.2

Entry Brc1ccc(-c2[nH]c3ccccc3c2N=Nc2ccccc2)cc1 has what growth inhibition?
-7

Entry O=C(OC1C#CCSCC#C/C=C\1)c1cnc2ccccc2n1 (configuration not stated) has what growth inhibition?
-11.2

Entry COC(=O)C1=C(O)C(C(=O)OC)[C@@]2(O)[C@@H](C(=O)OC)CC[C@@H]1[C@@H]2C(=O)OC (some centres not stated) has what growth inhibition?
3

###

# test method notes: NCI Yeast Anticancer Drug Screen. Data for the mlh1 rad18 strain (AID 175)
# assay context: S. cerevisiae mlh1 rad18 strain growth inhibition; at 50.0 µM; active compounds read high
About 79,000 compounds went through this panel and 15% of them were active in at least one assay; those are over-represented in the sample as a whole. Calls of active or inactive are those of the source. Cut-off read from the data, not from the text of the source: active = growth inhibition above about 70%; inactive = the rest.
outcome measure: growth inhibition

See these solved cases before continuing.
CO/C(=N\N=C\c1cccc(C(F)(F)F)c1)c1ccncc1	12.2% (inactive)
Cc1c(C=O)cc(-c2ccccc2)n1C	-1.6% (inactive)
N#Cc1sc2c(c1O)c(=O)n(-c1ccccc1)c(=S)n2-c1ccccc1	-47.8% (inactive)
O=C(COc1ccc(Cl)cc1)N(c1ccccc1)C1CCCCC1	96.9% (active)
Cc1ccc(S(=O)(=O)Oc2cccc(Br)c2)cc1	7.55% (inactive)

Entry Cc1ccc2nc(C)cc(NC(=O)c3ccccc3)c2c1 has what growth inhibition?
24.2% (inactive)

Entry C/C=C(\C)C(=O)OC1CC(OC(=O)/C(C)=C/C)C2(C)C3C(=O)C=C(C)C2C3C1(C)C (centres undefined) has what growth inhibition?
6.8% (inactive)

Entry CNC1=C(Sc2ccc(Cl)cc2)C(=O)c2ccccc2C1=O has what growth inhibition?
0.35% (inactive)

Entry CCOc1ccc(N2C(=O)NC3(c4ccccc4)N(C)C(=O)N(C)C23c2ccccc2)cc1 (centres undefined) has what growth inhibition?
-16.8% (inactive)

Entry CCCCCCCCCCCCCCOc1ccc(S(=O)(=O)/N=C(\N)NC(N)=NCCCCCCCCCC)cc1 has what growth inhibition?
2.15% (inactive)

FYI, the data here is from PubChem BioAssay (NCI).
